The origin of these recorded values is a melting point compilation (Tetko et al.; mined from patent text by program, amines drawn as free bases though some values may be those of a salt).

Assign melting point to each entry below.

Please give measured melting point of the following entry: `CCOC(=O)c1ccc(N(Cc2ccc(Cl)cc2)C(C)=O)cc1`
65 to 66 °C

Name the recorded melting point of the molecule listed here: Cc1sc(S(C)=O)nc1-c1ccccc1 (centres undefined)
96 to 97 °C

Given the molecule CC(C)(C)OC(=O)[C@H]1C[C@H](S(=O)(=O)c2ccccc2)[C@@H](c2ccccc2)N1C(=O)CNC(=O)Nc1cccc(C(=O)O)c1 (racemic) , write its reported melting point.
213 °C

Using known records, supply melting point for `O=C(O)COc1ccc(-c2c3ccccc3cc3sc4cc(OCC(=O)O)ccc4c23)cc1`
220 to 222 °C

Give recorded melting point. `COc1cc(CCN2CCCCC2)cc(OC)c1-c1ccc(C[C@H](NC(=O)c2c(Cl)cccc2Cl)C(=O)O)cc1`
195 °C

Give the reported value of melting point for this record: CC1(C)CC(O)CC(C)(C)N1OC1C=CCCC1 (centres undefined)
65 to 66.5 °C

Identify measured melting point associated with `COc1ccc(-c2oc3ccc(CC(=O)N4CCN(c5ccccc5)CC4)cc3c2SC)cc1OC`
160 °C

Check the records and state melting point for `COc1ccc(-c2ccc3c(n2)[nH]c2ccccc23)cc1`
> 220 °C

Indicate its recorded melting point; the molecule in question is CCCCOc1ccc(S(=O)(=O)N2CCC(O)C2)cc1 (centres undefined)
83 to 84 °C

* * *

MEASURED ATTRIBUTE: melting point

Given C#CC1(O)CN2CCC1CC2 (stereo not given) , respond with its melting point.
199 to 202 °C

Consider the compound `CN1CCN(c2nc3ccccc3[nH]2)CC1` and give its recorded melting point.
222 to 224 °C

Give the reported melting point for this compound. `COc1cccc([C@H]2O[C@H](CC(N)=O)C(=O)N(CC(C)(C)C)c3ccc(Cl)cc32)c1OC`
170 to 172 °C

Return melting point (reported value) for this compound: CC(=O)OC1CSC(Oc2cccc3onc(C)c23)C(OC(C)=O)C1OC(C)=O (stereo not given)
155 to 158 °C

Return the recorded melting point value; entry: `CC(=O)O[C@H]1C[C@@H]2CN(C(=O)c3ccc(NC(=O)c4ccccc4-c4ccccc4)cc3)c3ccccc3CN2C1`
116 to 118 °C

Note melting point for the compound shown: ClCCCCCOc1ccc(C2=C(c3ccc(OC4CCCCO4)cc3)CCCc3cc(OC4CCCCO4)ccc32)cc1 (stereo not given)
110 to 112 °C

Give a short answer stating reported melting point for `CC#CCOc1ccc(C=O)cc1OC` .
90 to 92 °C

Quickly give me recorded melting point for `c1ccc2[nH]c(SCc3cn4ccccc4n3)nc2c1`
220 to 222 °C

Find the measured melting point of `Cc1c(NC(=O)c2ccc(-c3ccc(OC(F)(F)F)cc3)cc2F)ccc2cc(CN3CCCC3)cnc12` and report it.
175 to 178 °C

Name the recorded melting point of the compound listed here: `CC1(C)C=Cc2cc(C(=O)NCCO)ccc2O1`
60 to 70 °C

* * *

I'd be grateful if you could share measured melting point for these entries.

Please supply the value of reported melting point for the item NC(=O)CN1CC2C=CC1C2 (stereo unspecified)
74 to 96 °C

// fetch melting point given entry COC(=O)c1ccc(CC(C)NCC(O)c2ccccc2)c(OC)c1 (stereo unspecified)
102 to 104 °C

Give the value of melting point reported for the following: `COc1cc(O)c(C=O)cc1OC`
104 to 105 °C

Identify the reported melting point for the following entry. `O=c1n(CCCN2CCN(c3ccccc3)CC2)nc2n1-c1ccccc1OC2`
94 to 96 °C

Give reported melting point value for `CCOC(=O)c1cnn2c1nc(OCC)c1cnc3c(cnn3CC)c12`
167 to 168 °C

Consider the compound `N#Cc1ccc(-c2nc(-c3ccc(F)cc3)c(-c3ccncc3)[nH]2)cc1` . State its measured melting point.
268 to 269 °C

Answer with the recorded melting point for the compound listed here: COc1ccc(C2=C(c3ccc(OC4CCCCO4)cc3)CCCc3cc(OC4CCCCO4)ccc32)cc1 (stereo unspecified)
160 to 161 °C

Please indicate melting point recorded for `O=C(c1c(F)cccc1F)N1CSCN(c2ccc(Cl)cc2)C1=O`
128 to 130 °C

Please give measured melting point of the following entry: `FC1(F)c2ccccc2C(F)(F)C(F)(F)c2ccccc21`
53 to 55 °C

Please supply the value of reported melting point for the item `CSCc1cn(C)c2c(Cl)cccc2c1=O`
146 to 148 °C

Answer with the recorded melting point for the compound listed here: `CCc1cc(C)c(F)c(CC)c1-c1c(O)c(C)nn(C)c1=O`
193 to 195 °C

* * *

MEASURED ATTRIBUTE: melting point

Complete the entry with melting point for `Clc1ccc(Nc2ccc(Br)cn2)cc1`
112 to 116 °C

Read the entry `CCOCc1nnc2c(C(F)(F)F)c(CN[C@H]3CC[C@@H](c4ccccc4)CC3)ccn12` and write its reported melting point.
137 °C

Return melting point for the following compound: `Cc1nc(-c2ccc(C(F)(F)F)cc2)oc1CSc1ccc(CC(=O)O)cc1Cl`
158 to 160 °C

Fill in reported melting point for this entry: CC(=O)c1ccc2c(c1)C(c1ncccc1C)CC(C)(C)O2 (stereo unspecified)
87 to 88 °C

State its melting point for this compound: CC(C)(C)OC(=O)NCCCCC(N)C(=O)Nc1ccccc1 (stereo unspecified)
72 to 74.5 °C

Given `CC(C)S(=O)(=O)c1cccc(-c2nc(=O)c3ccccc3s2)n1` , respond with its melting point.
205 to 206 °C

Supply recorded melting point for CN1CCC2(C)c3cc(O)cc([N+](=O)[O-])c3N(C)C12 (stereo unspecified) here.
170 to 171 °C

Tell us which melting point value is on record for `c1cc2c(cc1CSc1nnc(-c3ccc4c(c3)CCO4)o1)CCO2`
130 to 132 °C

For the compound `O=C(NNC(=O)c1ccccc1C(F)(F)F)c1ccccc1Cl` , give its reported melting point.
81.5 to 82.5 °C

State, in one line, measured melting point of O=CN(O)C(CCO)CS(=O)(=O)c1ccc(-c2ccc(F)cc2)cc1 (stereo unspecified)
160 to 162 °C

Give the reported value of melting point for this record: Cc1ccc(CNc2cccc3c2C(=O)N(C2CCC(=O)NC2=O)C3=O)o1 (stereo unspecified)
305 to 307 °C

State, in one line, measured melting point of `NC(=O)c1ccccc1N1CCc2cc(Cl)ccc21`
137 to 138 °C

Name the recorded melting point of the item `Cc1cc(Cl)cc(C(=O)c2[nH]c(=O)[nH]c(=O)c2C(C)C)c1` in your answer.
254 to 255 °C

// Input: `COc1nc2cc(Cl)cc(CCCO)c2nc1OC` . Output its melting point only.
104 to 105 °C

Item `COC(=O)c1cn(C(c2ccccc2)(c2ccccc2)c2ccccc2)nn1` : provide melting point
189 to 190 °C

Fill in reported melting point for this entry: `CCCCC=NNC1=NCCc2ccccc21`
147 to 148 °C

Fill in reported melting point for this entry: `COc1c2c(c(C3CCCCC3)c3c4c(ccc13)OCO4)CNC2=O`
244 to 246 °C

Tell us which melting point value is on record for `O=C1C=CC2(C=C1)N=C(N1CCN(Cc3cccc(C(F)(F)F)c3)CC1)C=C2c1ccccc1`
135 °C

Complete the entry with melting point for `CCCCc1nc2c(c(C)c(C)n3nnnc23)n1CC(C)(C)N`
144 to 147 °C

Return value of melting point for input `CCOC(=O)c1nnc(NS(=O)(=O)c2ccc(NC(C)=O)cc2)s1` , no commentary.
201 to 202 °C

Quick one: give measured melting point for `CCCCCS(=O)(=O)NC(=O)CCc1ccc(OCCN2CCCC2=O)cc1Oc1ncc(C(F)(F)F)cc1Cl`
123 to 126 °C

Please indicate melting point recorded for `CCc1cc(Oc2cncc3sc(C(N)=O)cc23)ccc1Cl`
185 to 187 °C

Dear colleague, please send me the reported melting point for CN(C)C1=Nc2ccccc2C(O)(c2ccccc2)C1(C)C (stereo unspecified) when you can.
170 to 173 °C

// fetch melting point given entry COc1ccc(NC(=O)C(C#N)C(=O)c2cccn2C)cc1 (stereo unspecified)
192 to 193 °C

Provide only the value of recorded melting point for `COc1cc(C(=O)N2Cc3cccn3Cc3ccccc32)ccc1-c1ccccc1C(F)(F)F`
146 to 148 °C

Fill in melting point for record `CC(C)(C)c1ccc(C(=O)Nc2cn3cc(-c4cccnc4)ccc3n2)cc1`
288 to 289 °C

Look up melting point of `Cc1cc(C=NNC(N)=S)ncc1N` and report it.
235 to 236 °C

Provide measured melting point value, entry: `CC(C)(CCC#N)c1ccc(C(=O)Nc2cn3cc(Cl)ccc3n2)cc1`
198 to 199 °C

Answer with the recorded melting point of O=C(O)c1ccc(SC(Cn2ccnc2)c2ccccc2O)cc1 (stereo unspecified) only.
186 to 190 °C

Please report the measured melting point for N#CC(c1ccccc1)c1ccc([N+](=O)[O-])cc1C(F)(F)F (stereo unspecified)
70.4 °C

Using known records, supply melting point for `O=C1NCCN1CC#CCn1ccnc1`
97 to 101 °C

Input CCOC(=O)C(O)CCn1cnc2c(=O)[nH]c(N)nc21 (stereo unspecified) , output reported melting point.
161 to 163 °C

Hello, please tell me recorded melting point for this one: `O=C(CC12CC3CC(CC(C3)C1)C2)Nc1cccc2[nH]ccc12`
211 to 213 °C

Specify measured melting point for `NC(=O)c1[nH]c2ccc(Cl)cc2c1S(=O)(=O)c1ccccc1Cl` .
267 °C

Fill in melting point for record `Cc1cc(C)cc(C(=O)c2c(C(C)C)c(=O)[nH]c(=O)n2Cc2ccnc(Cl)n2)c1`
197 to 198 °C

// Input: `COn1c(C(C)(C)C)nc2c(N)nc3ccccc3c21` . Output its melting point only.
195 to 197 °C

Tell me melting point reported for `COc1cc(CON=C(CCC(=O)O)c2ccccc2)cc(OC)c1OCc1nc(-c2ccccc2)oc1C`
89 to 90 °C

Answer with reported melting point of `Cc1ccc(-n2nc(C(=O)CCCO)cc2-c2ccc(S(C)(=O)=O)cc2)cc1`
159 to 161 °C

Supply measured melting point of `CC(=O)Oc1cccc2c1C(=O)c1c(OC(C)=O)cc(C#N)cc1C2=O` in your reply.
218 to 220 °C

Give the reported melting point for this compound. `Nc1ccc([N+](=O)[O-])cc1I`
90 to 95 °C

Supply measured melting point of `CN(C)c1ccc(C2(c3ccc(N(C)C)cc3)Oc3ccccc3-c3[nH]c4ccccc4c32)cc1` in your reply.
145 °C
